system: SK-OV-3 MDR-1/M-6-6; experiment: cells; details: Homo sapiens, SKOV3-MDR1-M6/6, read-out: Antiproliferative activity IC50, SK-OV-3 MDR-1/M-6-6
pIC50: −log10 of the molar value.
Measured Parameter: pIC50

# Compound, Meas Value
rows = [
    ("CCCCN(c1ccc(OC)cc1)c1nc(C)nc2oc(C)cc12 [Compound 14]", "< 5.00"),
]

###

tested on: MDA-MB-435; test: Breast cancer/endothelial cell IC50, MDA-MB-435; assay type: cell-based; conditions: Homo sapiens, MDA-MB-435, read-out: IC50, MDA-MB-435

# Compound, IC50 (nM)
data = [
    ("COc1ccc(/C=C\\c2cc(OC)c(OC)c(OC)c2)cc1O [CA-4, combretastatin A-4]", 52.2),
]

###

system: cellular microtubules in A-10 cells; assay: Loss of cellular microtubules, indirect immunofluorescence in A-10 cells; assay type: cell-based; settings: read-out: EC50 for microtubule depolymerization, 18 h, 50% loss of cellular microtubules

# Compound, EC50, µM
rows = [
    ("COc1ccc(N(C)c2nc(C)nc3oc(C)cc23)cc1.Cl [Compound 21]", 0.57),
]

###

system: 4T-1; assay: Breast cancer/endothelial cell IC50, 4T-1; assay type: cell-based, murine; conditions: Mus musculus, 4T1, read-out: IC50, 4T-1
Measured Parameter: IC50 (nM)

# Record Smiles, Meas Value
measured = [
    ("COc1ccc(/C=C\\c2cc(OC)c(OC)c(OC)c2)cc1O", 69.6),
]
